pIC50: −log10 of the molar value.
Multiple publications report pIC50 for HPK1 (Homo sapiens (Human), UniProt Q92918); what follows is a combined list.

>  <cpd.smiles>
Cc1cccc(F)c1-n1nc2c(-c3cnc(N4CCOCC4)nc3)n[nH]c2cc1=O

>  <pIC50>
6.30 to 7.30

$$$$
>  <cpd.smiles>
CC(C)n1nc2c(F)cc(NC(=O)c3ccc(=O)n(-c4c(F)cccc4F)n3)c(N3CC[C@@H](N)C3)c2c1Cl

>  <pIC50>
> 7.00

$$$$
>  <cpd.smiles>
COc1cccc(F)c1-c1nccc(C(=O)Nc2ccc(-c3cnccc3C#N)cc2N2CC[C@H](N)C2)c1F

>  <pIC50>
> 7.00

$$$$

The record that follows has no pIC50 shown yet.
Exercise: What does the record list as pIC50 for O=C1NCc2c(-c3ccnc4c3ccn4C(F)F)ccc(Nc3ccc(N4CCNCC4)cn3)c21 ?
Solution: > 7.00
